Overview of recorded Response value for various binders
# measured target: T1, Biotinylated Human VEGF165 (ACROBiosystems, Cat. No. VE5-H82Q0) (human, UniProt P15692-4 27-191, biotinylated (site not stated))
# T1 construct: Bought reagent; also called Human VEGF-Bio; human VEGF165-Bio
# T1 sequence (P15692 other isoform, or with tags, fused parts or gaps limits assumed): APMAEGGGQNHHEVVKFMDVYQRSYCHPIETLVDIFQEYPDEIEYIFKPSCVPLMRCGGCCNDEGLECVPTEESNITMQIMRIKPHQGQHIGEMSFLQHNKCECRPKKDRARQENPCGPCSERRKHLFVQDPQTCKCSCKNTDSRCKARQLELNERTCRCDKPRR
# measurement notes: BLI (Octet RED96e), method of Example 4, antibody on AHC sensor
Answer with the value's number alone.

>>> numeric_result("Ab1910VE23 (expressed affinity-matured single domain antibody, clone YC43H2) (VHH) VHH: EVQLVESGGGLVQPGGSLRLSCAASGSTSDIVSMAWYRQAPGKERELVSAVFAEDWRYVEDSVKGRFTISRDNSKNTVYLQMNSLRAEDTAVYYCNVRLRIPHQWRTERLDYWGQGTLVTVSS")
0.116
>>> numeric_result("Ab1910VE24 (expressed affinity-matured single domain antibody, clone YC43B1) (VHH) VHH: EVQLVESGGGLVQPGGSLRLSCAASGSTSDIVSMAWYRQAPGKERELVSAVFAEDWRYVEDSVKGRFTISRDNSKNTVYLQMNSLRAEDTAVYYCNVRLRITDWYSRERLDYWGQGTLVTVSS")
0.153
>>> numeric_result("Ab1910VE21 (expressed affinity-matured single domain antibody, clone YC41D1) (VHH) VHH: EVQLVESGGGLVQPGGSLRLSCAASGSTSDIVSMAWYRQAPGKERELVSAVLAPGWSYVEDSVKGRFTISRDNSKNTVYLQMNSLRAEDTAVYYCNVRLRITDERRRERLDYWGQGTLVTVSS")
0.154

Turning now to a further record.
For Ab1910VE18 (expressed single domain antibody with the Ab1910VE9 parent sequence, molecule before affinity maturation) (VHH, Its theoretical pI (7.5) differs from that of Ab1910VE9 (7), so it is kept apart from Ab1910VE9) VHH: EVQLVESGGGLVQPGGSLRLSCAASGSTSDIVSMAWYRQAPGKERELVSAVFAEDWRYVEDSVKGRFTISRDNSKNTVYLQMNSLRAEDTAVYYCNVRLRITDERRRERLDYWGQGTLVTVSS , what is its reported Response value?
0.142

The reported measurements were obtained from patent US20240287168A1.
